System: CAKI-1 renal
Assay: NCI tumour cell line growth inhibition, 48 h; in the data active = GI50 below about 0.43 µM; inactive = the rest
Pick from active, inactive when you respond.

1) COc1ccccc1CNCCCN1C(=O)c2ccc3c4c(ccc(c24)C1=O)C(=O)N(CCCCNCCCN)C3=O; inactive
2) CCCC(CCC)C(=O)OCC1(CO)C/C(=C\c2ccc(F)cc2)C(=O)O1 (centres undefined); inactive
3) COc1cccc(/C=C/C(=O)c2ccc(Cl)cc2Cl)c1; inactive
4) Cc1ccc(N(CC(=O)Nc2ccc(S(=O)(=O)N3CCC(N4CCCC4)CC3)cc2)S(=O)(=O)c2ccc(Cl)cc2)cc1; inactive
5) CCN(CC)CCCC(C)N=C(C1=C(C(=NC(C)CCCN(CC)CC)c2cccc(OC)c2)C(=O)NC1=O)c1cccc(OC)c1 (centres undefined); inactive

IN: Tell me the assay call for Cc1cn2c(/C=N/N=C(N)N)c(-c3cccs3)nc2s1 please.
OUT: inactive

IN: Tell me the assay call for COc1ccc2c(c1)CC[C@H](O)/C2=C/c1cc(OC)c(OC)c(OC)c1 please.
OUT: active

IN: Tell me the assay call for COC(=O)c1cc(O)c2c(c1C(=O)OC)C[C@H]1[C@@H]3CC=C4C[C@@H](O)CC[C@]4(C)[C@H]3CC[C@]21C please.
OUT: inactive

IN: Tell me the assay call for CCOC(=O)CC1C(COC(=O)NC)OC(n2cnc3c(NC(=O)Nc4ccccc4)ncnc32)C1O[Si](C)(C)C(C)(C)C (centres undefined) please.
OUT: inactive

* * *

Test system: SF-539 CNS
Assay: NCI tumour cell line growth inhibition, 48 h; in the data active = GI50 below about 0.43 µM; inactive = the rest
Pick from active, inactive when you respond.

Known results for compounds:
1) Cc1cn2c(/C=N/N=C(N)N)c(-c3cccs3)nc2s1; inactive
2) CCN(CC)CCCNC(=O)c1c2c(n3ccccc13)C(=O)c1ncccc1C2=O; inactive
3) CCn1c(-c2cc3ccccc3cc2O)nn(C(=O)c2c(Cl)cccc2Cl)c1=S; inactive
4) COc1ccc(OC)c2c1[nH]c(=O)c1c3ncccc3cn21; inactive

IN: Tell me the assay call for COc1cccc(NC(=O)c2sc3nc4c(cc3c2N)C(=O)CCC4)c1 please.
OUT: active

IN: Tell me the assay call for C=C1CCC2C(C)(COC(=O)CC)C(OC(=O)CC)CCC2(C)C1C/C=C1/C(=O)OCC1OC(=O)CC (stereo not given) please.
OUT: inactive

IN: Tell me the assay call for N#CCN/C=C\C(=O)c1ccc(Cl)cc1 please.
OUT: inactive

IN: Tell me the assay call for CCOC(=O)CC1C(COC(=O)NC)OC(n2cnc3c(NC(=O)Nc4ccccc4)ncnc32)C1O[Si](C)(C)C(C)(C)C (stereo not given) please.
OUT: inactive

IN: Tell me the assay call for COc1cccc(/C=C/C(=O)c2ccc(Cl)cc2Cl)c1 please.
OUT: inactive

IN: Tell me the assay call for OCC(O)c1nc2ccc3[nH]ncc3c2c2c1CCCC2 (stereo not given) please.
OUT: inactive

* * *

Each entry below lists one item and its recorded GI50 value.
System: 786-0 renal
Assay: NCI tumour cell line growth inhibition, 48 h

Solved entries:
1) Nc1nc(Cl)c(N=Nc2ccc(Cl)cc2)c(NCC2(CO)CCC2)n1; 10.2 µM
2) COc1cc(Nc2nc3ccccc3cc2C(=O)Nc2ccc(F)c(F)c2)cc(OC)c1OC; 3.38 µM
3) CNC(=O)Cc1nc(-c2cccc(NS(=O)(=O)c3c(F)cccc3F)c2F)c(-c2ccnc(Nc3ccccc3)n2)s1; 10.1 µM
4) COc1ccccc1CNCCCN1C(=O)c2ccc3c4c(ccc(c24)C1=O)C(=O)N(CCCCNCCCN)C3=O; 2.25 µM
5) CCN(CC)CCCNC(=O)c1c2c(n3ccccc13)C(=O)c1ncccc1C2=O; 0.904 µM

IN: May I ask what GI50 has been recorded for N#CC1=C(N)NC(N2CCOCC2)=NC12Nc1ccccc1N2 ?
OUT: 13 µM

IN: May I ask what GI50 has been recorded for Cc1cc(C)c(Cn2cnc3c(Cl)ncnc32)c(C)c1CCl ?
OUT: > 100 µM

* * *

Test system: SK-MEL-28 melanoma
Test: NCI tumour cell line growth inhibition, 48 h
Each entry below lists one item and its recorded TGI value.

1. CCCN(CCCC(NC(C)=O)C(=O)NCc1ccccc1)C(=O)NCCCl (stereo not given); > 100 µM

IN: May I ask what TGI has been recorded for COc1ccc(C2SCC(=O)N2NC(=O)c2ccc(NC(C)=O)cc2)cc1 (stereo not given) ?
OUT: > 100 µM

IN: May I ask what TGI has been recorded for COC(=O)C1[C@H](c2cc(OC)c(OC)c(OC)c2)OC(=O)C1(C(=O)OC)C(=O)c1ccc2c(c1)OCO2 (stereo not given in full) ?
OUT: > 100 µM

IN: May I ask what TGI has been recorded for CCOP(=O)(OCC)C(C#N)Cc1ccco1 (stereo not given) ?
OUT: > 10 µM

IN: May I ask what TGI has been recorded for O=C(O)CCC(=O)c1ccc(Cl)cc1 ?
OUT: > 100 µM

IN: May I ask what TGI has been recorded for Cc1c(C(=O)/C=C/c2ccccc2O)c(=O)n(-c2ccccc2)n1C ?
OUT: > 100 µM

IN: May I ask what TGI has been recorded for O=C1CC(c2cccc(Br)c2)n2cccc21 (stereo not given) ?
OUT: > 100 µM

IN: May I ask what TGI has been recorded for CN(C)CCCn1nc(N)c2nc3cc(Cl)ccc3nc21 ?
OUT: 35.7 µM

IN: May I ask what TGI has been recorded for COc1ccc(/C=N\Nc2ccc([N+](=O)[O-])cn2)cc1OC ?
OUT: > 100 µM

IN: May I ask what TGI has been recorded for CC(=O)N=C1N(/C=C2\C(=O)Oc3ccccc3C2=O)C(=O)/C(=C/c2ccc(NC(C)=O)cc2)N1C ?
OUT: > 100 µM

IN: May I ask what TGI has been recorded for C/C=C/CC(C)[C@@H](O)[C@H](NC)C(=O)O (stereo not given in full) ?
OUT: > 100 µM

IN: May I ask what TGI has been recorded for COC(=O)Cc1ccc(Oc2cnc3cc(F)c(F)cc3n2)cc1 ?
OUT: > 100 µM

IN: May I ask what TGI has been recorded for O=Cc1ccc(-c2ccc(-c3nc4ccccc4o3)cc2)o1 ?
OUT: > 100 µM

IN: May I ask what TGI has been recorded for O=C(/C=C/c1ccccc1)n1c(-c2ccc(Cl)cc2)nc2ccccc21 ?
OUT: 3.22 µM

IN: May I ask what TGI has been recorded for CN1C(=O)N[C@H]2[C@@H]3NC(=O)c4ccc(Br)n4[C@@H]3C[C@]21O ?
OUT: 0.262 µM

IN: May I ask what TGI has been recorded for COC(=O)C(Cc1nc2ccccc2[nH]c1=O)C(=O)C(=O)Nc1ccc([N+](=O)[O-])cc1[N+](=O)[O-] (stereo not given) ?
OUT: 40.1 µM

IN: May I ask what TGI has been recorded for O=c1c2cccc3cccc(c4n1CCN=4)c32 ?
OUT: > 100 µM

* * *

Test system: SK-OV-3 ovarian
Experiment: NCI tumour cell line growth inhibition, 48 h; in the data active = GI50 below about 0.43 µM; inactive = the rest
Pick from YES = active, NO = inactive when you respond.

Known results for compounds:
1. CC(=O)[CH-]C(=O)c1ccccc1.CC(=O)[CH-]C(=O)c1ccccc1.CCOCC[O-].CCOCC[O-].[Ti+4]; NO
2. O=C1/C(=C\c2ccccn2)c2ccccc2N1c1c(Cl)cccc1Cl; NO
3. Cn1c2ccc(Br)cc2c2c3c(c4c5ccccc5[nH]c4c21)C(=O)N(O)C3=O; YES
4. Cc1cc(N2CCSCC2)nc(NC2CCCC(Nc3ccnc4cc(Cl)ccc34)C2)n1 (stereo not given); NO

Now for a further compound.
IN: Tell me the assay call for COC(=O)c1cc(O)c2c(c1C(=O)OC)C[C@H]1[C@@H]3CC=C4C[C@@H](O)CC[C@]4(C)[C@H]3CC[C@]21C please.
OUT: NO

* * *

Test system: SNB-19 CNS
Experiment: NCI tumour cell line growth inhibition, 48 h
Each entry below lists one item and its recorded TGI value.

Solved entries:
1. CCC(CNc1cc(OC)cc2cccnc12)NC1CCCCC1 (stereo unspecified); > 100 µM
2. Nc1nc(N)c2cc(NCc3ccc(Cl)c(Cl)c3)ccc2n1; 2.78 µM
3. C/C=C/C1OC(O)(C(C)C(O)[C@H](C)C2OC(=O)/C(OC)=C/C(C)=C/[C@@H](C)[C@@H](O)[C@@H](C)C(O)C(C)C/C(C)=C/C=C/C2OC)C[C@@H](OC2CC(O)C(OC(N)=O)C(C)O2)C1C (stereo partly specified); 10.5 µM
4. Cc1csc(/N=C\c2c(O)c3ccccc3oc2=O)n1; > 100 µM
5. Clc1ccc(C(SCc2ccccc2)SCc2ccccc2)cc1; > 10 µM
6. O=C(N/N=C1/C(=O)c2c3ccccc3cc3cccc1c23)c1ccccc1; > 100 µM
7. O=[N+]([O-])CCc1cccc([N+](=O)[O-])c1; > 100 µM
8. O=C(Cc1ccccc1)Nn1c(-c2ccccc2)nc2ccccc2c1=O; > 100 µM
9. Cc1cn2c(/C=N/N=C(N)N)c(-c3cccs3)nc2s1; 35.8 µM
10. COC(=O)[C@H](Cc1c[nH]c2ccccc12)NC(=O)c1ccc(CNC(=O)/C=C/c2cccc(Oc3ccccc3)c2)cc1; > 100 µM

IN: May I ask what TGI has been recorded for Nc1ccc(C(=O)c2cn(CCN3CCOCC3)c3ccccc23)c2ccccc12 ?
OUT: > 100 µM

IN: May I ask what TGI has been recorded for CN(C)C=C1C(Cl)=C(C=O)CC(C=O)=C1Cl ?
OUT: 27.3 µM

IN: May I ask what TGI has been recorded for COC(=O)C1[C@H](c2cc(OC)c(OC)c(OC)c2)OC(=O)C1(C(=O)OC)C(=O)c1ccc2c(c1)OCO2 (stereo partly specified) ?
OUT: > 100 µM
